System Under Test: D(2) dopamine receptor (Homo sapiens, UniProt P14416)
Sequence (P14416 whole entry): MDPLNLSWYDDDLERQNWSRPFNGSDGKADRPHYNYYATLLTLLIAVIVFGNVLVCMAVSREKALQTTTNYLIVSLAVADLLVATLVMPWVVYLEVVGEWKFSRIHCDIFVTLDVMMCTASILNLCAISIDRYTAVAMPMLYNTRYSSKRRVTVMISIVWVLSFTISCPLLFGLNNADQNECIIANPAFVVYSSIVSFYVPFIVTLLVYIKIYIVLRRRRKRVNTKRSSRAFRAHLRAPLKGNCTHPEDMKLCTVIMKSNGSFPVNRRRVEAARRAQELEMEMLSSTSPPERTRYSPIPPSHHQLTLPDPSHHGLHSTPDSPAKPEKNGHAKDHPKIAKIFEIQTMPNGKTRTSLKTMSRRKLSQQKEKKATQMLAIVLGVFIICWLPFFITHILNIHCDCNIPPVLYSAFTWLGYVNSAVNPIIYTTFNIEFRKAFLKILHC
Method Notes: Displacement of [3H]raclopride from human recombinant dopamine D2 long receptor expressed in CHO-K1 cells incubated for 120 mins by scintillation counting analysis
Please respond with reported pKi for every item in the list.
Would you please state pKi, meaning minus log10 of the concentration in mol/L, as a bare number?

Form: molecule = CCCN1CCN(c2cccc3c2CN(S(=O)(=O)c2ccccc2)C3)CC1 ; pKi = 6.74

Form: molecule = CCCN1CCN(c2ccc3c(c2)CCN3S(=O)(=O)c2ccccc2)CC1 ; pKi = 6.61

Form: molecule = CCCN1CCN(c2ccc3c(c2)N(S(=O)(=O)c2ccccc2)CC3)CC1 ; pKi = 7.02

Form: molecule = O=S(=O)(c1ccccc1)N1CCc2ccc(N3CCN(C4CCC4)CC3)cc21 ; pKi = 6.39

Form: molecule = CCN1CCN(c2cccc3c2CN(S(=O)(=O)c2ccccc2)C3)CC1 ; pKi = 6.51

Form: molecule = CCCN1CCC(c2ccc3c(c2)N(S(=O)(=O)c2ccccc2)CC3)CC1 ; pKi = 6.49

Form: molecule = O=S(=O)(c1ccccc1)N1CCc2c(N3CCN(C4CCC4)CC3)cccc21 ; pKi = 6.45
